Quick list: hMC4-R Emax (%) per entry.
target: human recombinant melanocortin-4 receptor (human, UniProt P32245 1-332); test: cell-based or functional assay
Sequence (P32245 whole entry): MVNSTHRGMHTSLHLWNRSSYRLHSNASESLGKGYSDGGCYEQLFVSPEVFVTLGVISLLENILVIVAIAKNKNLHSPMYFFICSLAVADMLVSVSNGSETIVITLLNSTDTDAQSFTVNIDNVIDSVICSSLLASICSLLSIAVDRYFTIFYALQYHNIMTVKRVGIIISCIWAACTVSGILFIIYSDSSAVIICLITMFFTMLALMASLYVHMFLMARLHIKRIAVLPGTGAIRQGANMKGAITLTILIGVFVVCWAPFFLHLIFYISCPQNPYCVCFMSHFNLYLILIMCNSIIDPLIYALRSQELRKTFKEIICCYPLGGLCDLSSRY
Bridge positions count the residues as written; N and C are the ends. Square brackets hold non-standard residues; d marks the D form. Aad = N[C@@H](CCCC(=O)O)C(=O)O; Orn = NCCC[C@H](N)C(=O)O; Dab = NCC[C@H](N)C(=O)O
Give just the number in %; leave the unit off.

Answered examples (5):
BINDER	DISPLAY_UNIT	VALUE_REPORTED
Ac-RKN[dF]RWD-NH2 (lactam 2-7) [Ac-Arg-cyclo(Lys-Asn-D-Phe-Arg-Trp-Asp)-NH2]	%	97
Ac-[dR][Orn]Q[dF]RWE-NH2 (lactam 2-7) [Ac-D-Arg-cyclo(Orn-Gln-D-Phe-Arg-Trp-Glu)-NH2]	%	89
Ac-[dR]DQ[dF]RWK-NH2 (lactam 2-7, also called peptide No. 71) [Ac-D-Arg-cyclo(Asp-Gln-D-Phe-Arg-Trp-Lys)-NH2]	%	89
RKNFRXD (HELM PEPTIDE1{[ac].R.K.N.[dF].R.[O=C([C@H](Cc1ccc2ccccc2c1)N[*:1])[*:2]].D.[am]}$PEPTIDE1,PEPTIDE1,3:R3-8:R3$$$V2.0; SMILES CC(=O)N[C@@H](CCCNC(=N)N)C(=O)N[C@H]1CCCCNC(=O)C[C@@H](C(N)=O)NC(=O)[C@H](Cc2ccc3ccccc3c2)NC(=O)[C@H](CCCNC(=N)N)NC(=O)[C@@H](Cc2ccccc2)NC(=O)[C@H](CC(N)=O)NC1=O, also called peptide No. 162) [Ac-Arg-cyclo(Lys-Asn-D-Phe-Arg-Nal 2-Asp)-NH2]	%	82
RXQFRWX (N-acetyl; X2 = Dab; D-Phe 4; X7 = hGlu; side-chain lactam Dab2-hGlu7; C-terminal amide, also called peptide No. 159) [Ac-Arg-cyclo(Dab-Gln-D-Phe-Arg-Trp-hGlu)-NH2]	%	99

*Q* # lookup: hMC4-R Emax (%) of Ac-R[Aad]N[dF]RW[Dab]-NH2 (lactam 2-7, also called peptide No. 160) [Ac-Arg-cyclo(hGlu-Asn-D-Phe-Arg-Trp-Dab)-NH2]
*A* 98

*Q* Name the recorded hMC4-R Emax (%) for Ac-REN[dF]RW[Orn]-NH2 (lactam 2-7, also called peptide No. 161) [Ac-Arg-cyclo(Glu-Asn-D-Phe-Arg-Trp-Orn)-NH2] .
*A* 91
